Recorded binding signal (plate reader), one value per entry.
subjectOfTest: T1, oligopeptide AGIFATYPSGHLDM (SEQ ID NO: 106)
T1 construct: Synthetic peptide, part of Loop C of AQP3
T1 peptide: AGIFATYPSGHLDM
assayComment: ELISA on coated peptide

[Q] Look up binding signal (plate reader) for this binder: Antibody C (antibody, mouse IgG2a, kappa, V domains shown, also called anti AQP3 antibody C) VH: QVQLKQSGAELARPGASVKLSCKASGYNFKSYGISWVKQRTGQGLEWIGEIYPGSGNTYYNEKLKGKATLTADKSSSTAYMELRSLTSEDSAVYFCARTYGYDSFPWFAYWGQGTLVTVSS VL: DIVMTQAAPSVPVTPGESVSISCRSSKSLLHSNGNTYLYWFLQRPGQSPQLLIYRVSNLASGVPDRFSGSGSGTAFTLRISRVEAEDEGVYYCMQHLEYPFTFGAGTKLEIKR
[A] 2.97

[Q] // query binding signal (plate reader) value for entry BC-H9 (IgG) (antibody, V domains shown, also called anti AQP3 antibody BC-H9) VH: QSLEESGGRLVTPGTPLTLTCTVSGFSLYTYAMGWVRQAPGKGLEWIGIINNDGISSTWYASWVKGRFTISKTSTTMDLKMTSLTTEDTATYFCARGGTSGYDIWGPGTLVTVSL VL: AQGLTQTPSPVSAAVGGTVTINCQSGPSVYKNYLSWYQQKAGQPPKLLIYGASTLASGVPSRFKGSGSGTQFTLTISDVQCDDAATYYCAGGYRGSSDIFAFGGGTEVVVK
[A] 2.65

[Q] Would you mind telling me what binding signal (plate reader) value was observed for SC-B6 (IgG) (antibody, V domains shown, also called anti AQP3 antibody SC-B6) VH: QSVKESGGRLVTPGAPLTLTCTVSGFSLNNYAMTWVRQAPGKGLEWIGIINNDGISSTWYASWVKGRFIISKTSTTVDLKMTSLTTEDTATYFCARGGTSGYDIWGPGTLVTVSL VL: AQGPTQTPSPVSAAVGGTVTINCQSSPSVYKNYLSWYQQKPGQPPKLLIYGASTLASGVPSRFKGSRSGTQFTLTISDVQCDDAATYYCAGGYIGSRDIFSFGGGTEVVVK ?
[A] 3.83

[Q] Entry Antibody J (antibody, mouse IgG2a, kappa, V domains shown, also called anti AQP3 antibody J) VH: QVHLQQSGTELVKPGASVKLSCEASGYTFTSYWMHWVKQRPGQGLEWIGNINPSNGGTNYNEKFKSKATLTVDKSSSTAYMQLSSLTSEDSAVYYCARGGIYYGNYDYYAMDYWGQGTSVTVSS VL: DIVMTQAAPSVPVTPGESVSISCRSSKSLLHSNGNTYLYWFLQRPGQSPQLLIYRVSNLASGVPDRFSGSGSGTAFTLRISRVEAEDVGVYYCMQHLEYPFTFGGGTKLEIKR : reported binding signal (plate reader) = ?
[A] 0.744

[Q] Request the reported binding signal (plate reader) associated with SC-F8 (IgG) (antibody, V domains shown, also called anti AQP3 antibody SC-F8) VH: QTVKESGGRLVTPGGSLTLTCTVSRFSLSNYAMTWVRQAPGKGLEWIGIINNDGISSTWYASWVKGRFTISKTSTTMDLKMTSLTTEDTATYFCARGGTSGYDIWGPGTLVTVSL VL: AQVLTQTPSPVSAAVGGTVTINCQSSPSVYKNYLSWYQQKPGQPPKLLIYGASTLASGVPSRFKGSGSGTQFTLTISDVQCDDAATYYCAGGYRGSSDIFAFGGGTEVVVK
[A] 3.92

[Q] // binding signal (plate reader) lookup, key: BC-B10 (IgG) (antibody, V domains shown, also called anti AQP3 antibody BC-B10) VH: QSVEESGGRLVTPGAPLTLTCTVSRFSLSSYAMTWVRQAPGKGLEWIGIINNDVISSTWYASWVKGRFTISKTSTTMELKMTSLTTEDTATYFCARGGTSGYDIWGPGTLVTVSS VL: AIKMTQTPSPVSAAVGGTVTINCQSSPSVYKNYLSWYQQKPGQPPKLLIYGASTLASGVPSRFKGSGSGTQFTLTISDVQCDDAATYYCAGGYIGSRDIFSFGGGTEVVVK
[A] 3.9

Hey, just so you know, these numbers are from patent US20220298237A1.
